System: Clostridium sporogenes DSM 1664
Test: fold change of Tryptamine concentration vs plate DMSO controls (fold change (ratio)); higher = more amine produced, active = hit call of the paper (significant change in both replicates, either direction)
Settings: incubation time: 27 h, anaerobic, 37 °C
Counter-ions that a name gives are not always drawn.
So basically: fold change of Tryptamine concentration at 1 or higher? That is true. Lower than 1? That is false.

These recorded examples may help you get a feel for the data.
O=C1CC2(CCCC2)CC(=O)N1CCCCN1CCN(c2ncccn2)CC1 [Buspirone hydrochloride] (20 µM); true
CN1CCN(C2Cc3ccccc3Sc3ccc(Cl)cc32)CC1 (stereo not given) [Octoclothepin maleate salt] (20 µM); true
COc1cc2nc(N3CCN(C(=O)C4COc5ccccc5O4)CC3)nc(N)c2cc1OC (stereo not given) [Doxazosin mesylate] (20 µM); true
Cc1ccc(Nc2c(F)cccc2Cl)c(CC(=O)O)c1 [Lumiracoxib] (20 µM); false
Fc1ccc([C@@H]2CCNC[C@H]2COc2ccc3c(c2)OCO3)cc1 [Paroxetine hydrochloride] (20 µM); false

Could you verify whether the entry CCCC1O[C@@H]2C[C@H]3[C@@H]4CCC5=CC(=O)C=C[C@]5(C)[C@H]4[C@@H](O)C[C@]3(C)[C@]2(C(=O)CO)O1 (stereo not given in full) [Budesonide] (20 µM) shows fold change of Tryptamine concentration of no less than 1? false

Is it the case that COc1cc2nc(N3CCN(C(=O)C4CCCO4)CC3)nc(N)c2cc1OC (stereo not given) [Terazosin hydrochloride] (20 µM) has fold change of Tryptamine concentration reaching or exceeding 1? true
